Source listed as patent US20020183362A1.

biological target: Human COX-2 (Homo sapiens); construct: A 2.0 kb fragment containing the coding region of either human or murine COX-1 or human or murine COX-2; made in house; host or cells: SF9 insect cells (baculovirus, transfer vector pVL1393); assay: Fast assay for COX-1 and COX-2 activity (PGE2 ELISA), COX-2; assay type: biochemical; details: Table II, pre-incubated 10 minutes at 25° C., arachidonic acid 10 μM, stopped after two minutes, pH 7.5
QUANTITY_MEASURED: IC50 (nM)

A selection of reference data follows.
• Cc1cccc(-n2nc(C(F)(F)F)cc2-c2ccc(S(C)(=O)=O)c(F)c2)c1 [Example 17] = 27
• Cc1ccc(-n2nc(C(F)(F)F)cc2-c2ccc(S(C)(=O)=O)c(F)c2)cc1Cl [Example 15] = 15
• COc1ccccc1-c1cc(C(F)(F)F)nn1-c1ccc(S(N)(=O)=O)c(F)c1 [Example 9] = 180

(a) Cc1onc(-c2ccc(F)cc2)c1-c1ccc(S(N)(=O)=O)c(F)c1 [Example 22]
(b) CS(=O)(=O)c1ccc(C2=C(c3ccccc3)C(=O)OC2)cc1F [Example 24]
(c) Cc1ccc(-n2nc(C(F)F)cc2-c2ccc(S(C)(=O)=O)c(F)c2)cc1Cl [Example 20]
(d) NS(=O)(=O)c1ccc(-n2nc(C(F)(F)F)cc2-c2ccc(F)cc2)cc1F [Example 8]
Query: Order the 4 compounds from highest to lowest IC50. Respond with an ordered listing of the labels, as requested.
Result: b, c, d, a

(P) COc1ccc(-c2cc(C(F)(F)F)nn2-c2ccc(S(N)(=O)=O)c(F)c2)cc1F [Example 6]
(Q) CS(=O)(=O)c1ccc(-c2cc(C(F)F)nn2-c2ccc(F)cc2)cc1F [Example 18]
(R) CS(=O)(=O)c1ccc(-c2cc(C(F)(F)F)nn2-c2ccc(F)cc2)cc1F [Example 11]
(S) CS(=O)(=O)c1ccc(-c2cscc2-c2ccccc2)cc1F [Example 2]
Query: With regard to IC50, arrange the entries in ascending order, please. Respond with an ordered listing of the labels, as requested.
Result: P, S, R, Q
(P: 18 nM, S: 43 nM, R: 130 nM, Q: 310 nM)

(I) CS(=O)(=O)c1ccc(-c2cc(C(F)F)nn2C2CCCCC2)cc1F [Example 19]
(II) CS(=O)(=O)c1ccc(-c2cc(C(F)(F)F)nn2-c2cccc(C(F)(F)F)c2)cc1F [Example 13]
(III) CS(=O)(=O)c1ccc(-c2cc(C(F)(F)F)nn2-c2ccc(C#N)cc2)cc1F [Example 16]
(IV) CS(=O)(=O)c1ccc(-c2cc(C(F)(F)F)nn2-c2ccc(OC(F)(F)F)cc2)cc1F [Example 14]
(V) NS(=O)(=O)c1ccc(-c2cscc2-c2ccccc2)cc1F [Example 1]
Query: With regard to IC50, arrange the entries in ascending order, please. Respond with an ordered listing of the labels, as requested.
Result: V, IV, II, I, III

(I) CS(=O)(=O)c1ccc(-c2cc(C(F)(F)F)nn2C2CCCCC2)cc1F [Example 12]
(II) Cc1ccc(-c2cc(C(F)(F)F)nn2-c2ccc(S(N)(=O)=O)c(F)c2)cc1 [Example 4]
(III) CS(=O)(=O)c1ccc(-c2cc(C(F)F)nn2-c2cccc(C(F)(F)F)c2)cc1F [Example 21]
(IV) NS(=O)(=O)c1ccc(-n2nc(C(F)(F)F)cc2-c2ccc(Cl)cc2)cc1F [Example 5]
Query: With regard to IC50, arrange the entries in ascending order, please. Respond with an ordered listing of the labels, as requested.
Result: IV, II, I, III

---

Below, each entry is listed alongside its reported melting point.
Where a name gives a salt, the structure may show the parent alone.

• Cc1ccc(-n2nc(C(F)F)cc2-c2ccc(S(C)(=O)=O)c(F)c2)cc1Cl (as salt: trifluoroacetate) = 146 to 147 °C
• Cc1ccc(-c2cc(C(F)F)nn2-c2ccc(S(N)(=O)=O)c(F)c2)cc1Cl = 160 to 161 °C
• COc1ccc(-c2cc(C(F)(F)F)nn2-c2ccc(S(N)(=O)=O)c(F)c2)cc1F (as salt: trifluoroacetate) = 124 to 126 °C
• NS(=O)(=O)c1ccc(-c2cscc2-c2ccccc2)cc1F = 170.9 to 171 °C
• Cc1cccc(-n2nc(C(F)(F)F)cc2-c2ccc(S(C)(=O)=O)c(F)c2)c1 = 129 to 130 °C

Lab book: melting point of Cc1onc(-c2ccccc2)c1-c1ccc(S(N)(=O)=O)c(F)c1 noted as 180 to 182 °C

Lab book: melting point of CS(=O)(=O)c1ccc(-c2cc(C(F)F)nn2C2CCCCC2)cc1F (as salt: trifluoroacetate) noted as 138 to 139 °C

Lab book: melting point of Cc1ccc(-n2nc(C(F)(F)F)cc2-c2ccc(S(C)(=O)=O)c(F)c2)cc1Cl noted as 144 to 145 °C

---

Counter-ions that a name gives are not always drawn.
QUANTITY_MEASURED: melting point

A selection of reference data follows.
- CS(=O)(=O)c1ccc(-c2cc(C(F)F)nn2-c2ccc(F)cc2)cc1F (as salt: trifluoroacetate) [Example 18]: 201 to 202 °C
- COc1ccccc1-c1cc(C(F)(F)F)nn1-c1ccc(S(N)(=O)=O)c(F)c1 (as salt: trifluoroacetate) [Example 9]: 159 to 160 °C
- Cc1ccc(-c2cc(C(F)(F)F)nn2-c2ccc(S(N)(=O)=O)c(F)c2)cc1 (as salt: trifluoroacetate) [Example 4]: 126 to 128 °C
- CS(=O)(=O)c1ccc(-c2cc(C(F)(F)F)nn2C2CCCCC2)cc1F [Example 12]: 228 to 229 °C
- CS(=O)(=O)c1ccc(-c2cc(C(F)(F)F)nn2-c2ccc(OC(F)(F)F)cc2)cc1F [Example 14]: 110 to 112 °C

// moving on: another record for melting point
Lab book: melting point of COc1ccc(-c2cc(C(F)F)nn2-c2ccc(S(N)(=O)=O)c(F)c2)cc1F [Example 10] noted as 167 to 169 °C

---

Target: Human COX-2 (Homo sapiens, UniProt P35354)
Construct: A 2.0 kb fragment containing the coding region of either human or murine COX-1 or human or murine COX-2; made in house; host or cells: SF9 insect cells (baculovirus, transfer vector pVL1393)
Sequence (P35354 18-604): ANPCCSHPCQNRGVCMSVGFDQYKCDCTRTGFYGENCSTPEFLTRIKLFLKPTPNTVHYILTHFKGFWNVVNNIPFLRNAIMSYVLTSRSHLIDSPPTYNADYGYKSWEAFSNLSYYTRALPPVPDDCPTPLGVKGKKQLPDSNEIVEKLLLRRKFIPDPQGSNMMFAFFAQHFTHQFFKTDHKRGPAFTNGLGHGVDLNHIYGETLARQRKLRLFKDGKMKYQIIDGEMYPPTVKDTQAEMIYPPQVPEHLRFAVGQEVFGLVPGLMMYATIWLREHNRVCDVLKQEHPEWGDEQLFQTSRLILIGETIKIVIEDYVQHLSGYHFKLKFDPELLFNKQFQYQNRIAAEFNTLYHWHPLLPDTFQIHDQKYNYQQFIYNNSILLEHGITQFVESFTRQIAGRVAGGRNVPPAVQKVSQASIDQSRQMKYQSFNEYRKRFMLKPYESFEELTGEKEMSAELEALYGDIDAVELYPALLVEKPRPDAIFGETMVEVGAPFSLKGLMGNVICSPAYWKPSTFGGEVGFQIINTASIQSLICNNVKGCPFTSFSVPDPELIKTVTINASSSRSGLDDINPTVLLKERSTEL
Assay: Assay for COX-1 and COX-2 activity (PGE2 ELISA, recombinant enzyme), COX-2
Format: biochemical
Conditions: Table I; pre-incubated 10-20 minutes, arachidonic acid 10 μM, stopped after ten minutes, pH 8.0
Experimental: The COX-2 inhibition activity of the compounds of this invention illustrated in the Examples was determined by the following methods. Recombinant COX-1 and COX-2 were prepared as described by Gierse et al, [J. Biochem., 305, 479-84 (1995)]. […] COX activity was assayed as PGE2 formed/μg protein/time using an ELISA to detect the prostaglandin released. […] The PGE2 formed was measured by standard ELISA technology (Cayman Chemical).
pIC50: −log10 of the molar value.
QUANTITY_MEASURED: pIC50

A selection of reference data follows.
* CS(=O)(=O)c1ccc(-c2cc(C(F)F)nn2C2CCCCC2)cc1F | 6.15
* COc1ccc(-c2cc(C(F)(F)F)nn2-c2ccc(S(N)(=O)=O)c(F)c2)cc1F | 7.60
* Cc1cccc(-n2nc(C(F)(F)F)cc2-c2ccc(S(C)(=O)=O)c(F)c2)c1 | 5.98
* NS(=O)(=O)c1ccc(-n2nc(C(F)(F)F)cc2-c2ccc(Cl)cc2)cc1F | 8.30
* CS(=O)(=O)c1ccc(-c2cc(C(F)(F)F)nn2-c2ccc(OC(F)(F)F)cc2)cc1F | 7.21

(a) Cc1ccc(-c2cc(C(F)F)nn2-c2ccc(S(N)(=O)=O)c(F)c2)cc1Cl
(b) CS(=O)(=O)c1ccc(C2=C(c3ccccc3)C(=O)OC2)cc1F
Query: Which numeric pIC50 is bigger, that of a or that of b ? Your choice should be expressed through its label.
Result: a
